Target: uracil-DNA glycosylase (Leishmania naiffi)
Sequence (D0VWU0 1-260): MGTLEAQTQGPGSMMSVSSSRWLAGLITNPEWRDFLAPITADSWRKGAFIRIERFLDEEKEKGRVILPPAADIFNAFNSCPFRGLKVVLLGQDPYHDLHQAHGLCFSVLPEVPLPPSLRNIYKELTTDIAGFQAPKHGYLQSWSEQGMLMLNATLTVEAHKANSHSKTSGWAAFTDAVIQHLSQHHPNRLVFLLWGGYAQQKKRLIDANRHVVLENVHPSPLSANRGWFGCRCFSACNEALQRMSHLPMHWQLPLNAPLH
reported.endpoint: IC50

Which measured IC50 value corresponds to COc1ccc(Cl)cc1C(=O)O [5-chloro-2-methoxybenzoic acid] ? ~15 mM

Taken from paper PMC2897734.
